Hi there, I'd appreciate the recorded IC50 for every entry that follows.
# experimentalTarget: Human immunodeficiency virus type 1 reverse transcriptase (Human immunodeficiency virus 1)
# protocolDetails: In vitro inhibitory concentration against reverse transcriptase of HIV-1 (RT)

input: I would be grateful if you could share the reported IC50 for Cc1nc(CCCCCCC(=O)c2ccccc2)n2nc(N3CCCC3)ccc12 .
output: 50 nM

input: Another compound: Cc1nc(CCCCCCC(=O)c2ccccc2)n2nc(Cl)ccc12
output: 840 nM

input: Another compound: Cc1nc(CCCCCCC(=O)c2ccccc2)n2nc(-n3cnnc3)ccc12
output: 2600 nM

input: Another compound: Cc1nc(CCCCCCC(O)c2ccccc2)n2nc(Cl)ccc12 (stereo unspecified)
output: 380 nM

input: Another compound: Cc1nc(CCCCCCC(=O)c2ccccc2)n2nc(-n3cncc3C)ccc12
output: 100 nM

input: Another compound: CNc1ccc2c(C)nc(CCCCCCC(=O)c3ccccc3)n2n1
output: 3400 nM

input: Another compound: Cc1nc(CCCCCCC(=O)c2ccccc2)n2nc(-n3nccn3)ccc12
output: 1300 nM

input: Another compound: Cc1nc(CCCCCCC(=O)c2ccccc2)n2nc(-n3ccnc3)ccc12
output: 0.6 nM

input: Another compound: Cc1nc(CCCCCCC(=O)c2ccccc2)n2nc(N3CCCCC3)ccc12
output: 6700 nM

input: Another compound: Cc1nc(CCCCCOCc2ccccc2)n2nc(Cl)ccc12
output: 2300 nM

input: Another compound: Cc1nc(CCCCCCCC(=O)c2ccccc2)n2nc(Cl)ccc12
output: 3000 nM

---

# experimentalTarget: Human immunodeficiency virus type 1 reverse transcriptase (Human immunodeficiency virus 1)
# protocolDetails: In vitro inhibitory concentration against reverse transcriptase of HIV-1 (RT)
Hi there, I'd appreciate the recorded pIC50 for every entry that follows.
Schema: pIC50 number; meaning minus log10 of the concentration expressed in molar units.

input: I would be grateful if you could share the reported pIC50 for Cc1nc(CCCCCOC(=O)C2CCCC2)n2nc(Cl)ccc12 .
output: 4.66

input: Another molecule: Cc1nc(CCCCCC(=O)c2ccccc2)n2nc(Cl)ccc12
output: 5.32

input: Another molecule: Cc1nc(CCCCCC(=O)Cc2ccccc2)n2nc(Cl)ccc12
output: 5.41

input: Another molecule: O=C(CCCCCCc1ncc2ccc(Cl)nn12)c1ccccc1
output: 6.47

---

# experimentalTarget: Human immunodeficiency virus type 1 reverse transcriptase (Human immunodeficiency virus 1, UniProt Q72547)
# protocolDetails: In vitro inhibitory concentration against reverse transcriptase of HIV-1 (RT)
IC50 strictly less than 2 µM = 1. Otherwise 0.

input: Please determine if Cc1nc(CCCCCCC(=O)c2ccccc2)n2nc(-n3ccnc3C)ccc12 is below 2 µM in terms of IC50.
output: 0

input: Another molecule: CC(=O)OCCCCCc1nc(C)c2ccc(Cl)nn12
output: 0

input: Another molecule: Cc1nc(CCCCCCC(=O)c2ccccc2)n2nc(N)ccc12
output: 0

input: Another molecule: Cc1cn(-c2ccc3c(C)nc(CCCCCCC(=O)c4ccccc4)n3n2)cn1
output: 1

input: Another molecule: Cc1nc(CCCCCCC(=O)c2ccccc2)n2nc(-n3cncn3)ccc12
output: 1

input: Another molecule: CC(C)c1nc(CCCCCCC(=O)c2ccccc2)n2nc(Cl)ccc12
output: 0

---

# experimentalTarget: UniProt:Q72547
# protocolDetails: Inhibition of reverse transcriptase activity of HIV-1 in the presence of [alpha35 S] TTP as cosubstrate.
outcomeMeasure: IC50 (nM)
Kindly provide the numeric value in nM only, without the unit symbol.

input: Lookup: IC50 / UniProt:Q72547 / CCc1cc(NCc2nc3c(Cl)ccc(Cl)c3o2)c(O)nc1C [L-697661]
output: 850

---

# experimentalTarget: Human immunodeficiency virus type 1 reverse transcriptase (Human immunodeficiency virus 1, UniProt Q72547)
# protocolDetails: In vitro inhibitory concentration against reverse transcriptase of HIV-1 (RT)
Hi there, I'd appreciate the recorded IC50 for every entry that follows.
Kindly provide the numeric value in nM only, without the unit symbol.

input: I would be grateful if you could share the reported IC50 for Cc1nc(CCCCCCC(=O)c2ccccc2)n2nc(-n3cccn3)ccc12 .
output: 3400

input: Another compound: Cc1nc(CCCCCCC(=O)c2ccccc2)n2ncccc12
output: 560

input: Another compound: CSc1ccc2c(C)nc(CCCCCCC(=O)c3ccccc3)n2n1
output: 80

input: Another compound: Cc1nc(CCCCCCC(O)c2ccccc2)n2nc(-n3ccnc3)ccc12 (stereo unspecified)
output: 230

input: Another compound: Cc1nc(CCCCCCC(=O)c2ccccc2)n2nc(N(C)C)ccc12
output: 270

input: Another compound: CCc1nc(CCCCCCC(=O)c2ccccc2)n2nc(Cl)ccc12
output: 2000

input: Another compound: COc1ccc2c(C)nc(CCCCCCC(=O)c3ccccc3)n2n1
output: 640

input: Another compound: Cc1nc(CCCCCCC(=O)c2ccccc2)n2nc(-n3ccnn3)ccc12
output: 640

input: Another compound: Cc1nc(CCCCCCC(=O)c2ccccc2)n2nc(-n3cccc3)ccc12
output: 80

input: Another compound: Cc1nc(CCCCCCCc2ccccc2)n2nc(Cl)ccc12
output: 14000
